- ASSAY SYSTEM: Cytochrome P450 2C19 (Homo sapiens) (UniProt P33261)
- Sequence (P33261 whole entry, looked up): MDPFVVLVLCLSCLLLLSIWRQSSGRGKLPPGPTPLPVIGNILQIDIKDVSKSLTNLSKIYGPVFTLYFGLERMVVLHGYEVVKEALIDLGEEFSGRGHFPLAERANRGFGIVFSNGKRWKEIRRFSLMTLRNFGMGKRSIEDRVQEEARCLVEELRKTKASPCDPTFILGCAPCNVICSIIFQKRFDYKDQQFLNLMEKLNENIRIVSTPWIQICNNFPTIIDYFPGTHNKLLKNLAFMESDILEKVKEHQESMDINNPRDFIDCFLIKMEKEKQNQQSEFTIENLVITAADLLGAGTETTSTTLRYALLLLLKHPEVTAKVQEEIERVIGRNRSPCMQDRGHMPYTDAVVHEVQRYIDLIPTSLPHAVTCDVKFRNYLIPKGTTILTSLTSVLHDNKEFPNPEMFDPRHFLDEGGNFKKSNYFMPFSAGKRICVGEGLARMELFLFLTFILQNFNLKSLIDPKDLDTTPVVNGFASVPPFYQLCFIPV
- EXPERIMENTAL DETAILS: blockers of cytochrome P450 2C19 activity – biochemical, luminescence, ADME assay, primary screen (AID 778)
- REPORTED CONDITIONS: CYP2C19 Supersomes, luciferin-H EGE luminescence, 30 min; at 5 µM; active compounds read high
The whole screen tested about 96,000 compounds, of which about 20,000 (21%) were called active. These entries were drawn from the full list.
Assign YES whenever inhibition does not fall below 30%; assign NO whenever it does.

Some entries whose results are on file:
{"COMPOUND": "Cc1nc2ccccc2c2oc(C(=O)NCC3CCCO3)cc12 (stereo not given)", "ASSIGNED CATEGORY": "NO"}
{"COMPOUND": "CCN(CC)CCn1c(=S)[nH]c2ncccc2c1=O", "ASSIGNED CATEGORY": "NO"}
{"COMPOUND": "C/C(=N\\NC(=O)Cc1ccc(Cl)cc1)c1ccccn1", "ASSIGNED CATEGORY": "YES"}
{"COMPOUND": "CCn1c(O)c2ccc(C(=O)N=NC(=O)c3cccnc3)cc2c1O", "ASSIGNED CATEGORY": "NO"}
{"COMPOUND": "c1ccc2c(NCC3CCCO3)nc(-c3ccncc3)nc2c1 (stereo not given)", "ASSIGNED CATEGORY": "YES"}

Incoming: Can C=C(C)CSc1nc(N)c2c3c(sc2n1)CCC3 be said to have inhibition at or above 30%?
Outgoing: YES

Incoming: Also, COc1ccccc1C(=O)C(O)c1ccccc1OC (stereo not given) please.
Outgoing: YES

Incoming: Also, Cc1nc(NC(=O)C23CCC(C)(C(=O)O2)C3(C)C)sc1C (stereo not given) please.
Outgoing: NO

Incoming: Also, Nc1nonc1-c1nc2ccccc2n1CCC(=O)O please.
Outgoing: NO

Incoming: Also, C=CCOc1cccc(CNn2cn[nH]c2=S)c1 please.
Outgoing: YES

Incoming: Also, COC(=O)C1=C(C)OC(N)=C(C#N)C1c1cc(OC)ccc1OC (stereo not given) please.
Outgoing: YES

Incoming: Also, O=C(Nc1cc(-c2nn(CC(=O)N3CCCCC3)c(=O)c3ccccc23)ccc1N1CCOCC1)c1ccc(Cl)cc1 please.
Outgoing: NO

Incoming: Also, c1ccc(CCn2nnnc2CN2CCN(C3CCCC3)CC2)cc1 please.
Outgoing: NO

Incoming: Also, COc1ccc(-c2[nH]nc3c2C(c2ccncc2)C(C#N)=C(N)O3)cc1 (stereo not given) please.
Outgoing: NO

Incoming: Also, c1nnc2c3c4c(sc3ncn12)CCC4 please.
Outgoing: NO

Incoming: Also, CCOc1cc(-c2nc3cc(C)ccn3c2NCC2CCCO2)ccc1O (stereo not given) please.
Outgoing: NO

Incoming: Also, COc1ccccc1N1CCN(Cc2nnnn2CCc2ccccc2)CC1 please.
Outgoing: YES

Incoming: Also, O=C(Oc1ccc(-c2nc(-c3ccccn3)no2)cc1)c1ccccc1 please.
Outgoing: YES
